Exercise: state measured MIC for each of the compounds provided.
- Test system: Escherichia coli
- Test summary: microbe, parasite or virus in culture
- Type: functional
- Details: ATCC 25922, 5 h
- Description: Inhibition of cell division in penicillin-susceptible Escherichia coli ATCC 25922 assessed as filamentation after 5 hrs by phase contrast microscopy
Output spec: scalar in µg/mL, unitless text.

[in] Query (compound): `COc1ccc(/C=C/C(=O)n2c(C)nc3ccccc32)cc1OC` ; field requested: MIC
[out] 128

[in] // returns reported MIC for input `CCN(CC)C(=O)/C=C/c1ccc(OC)c(OC)c1`
[out] 128

###

Would you mind telling me the reported MIC of each entry?
- Test system: Pseudomonas aeruginosa
- Test summary: microbe, parasite or virus in culture
- Type: functional
- Details: ATCC 27853, 5 h
- Description: Inhibition of cell division in penicillin-susceptible Pseudomonas aeruginosa ATCC 27853 assessed as filamentation after 5 hrs by phase contrast microscopy

[in] Requested field: MIC. Item: `Cc1nc2ccccc2n1C(=O)/C=C/c1ccc([N+](=O)[O-])cc1`
[out] > 128 µg/mL

[in] # input compound: `CCN(CC)C(=O)/C=C/c1ccc(Cl)cc1Cl` ; wanted: its MIC
[out] > 128 µg/mL

[in] Item under review: `CCCCNC(=O)/C=C/c1ccc(OC)c(OC)c1` . Reported MIC?
[out] > 128 µg/mL

[in] Sample `COc1ccc(/C=C/C(=O)N(C)C)cc1OC` — what was its MIC?
[out] > 128 µg/mL

[in] Given the compound `Cc1nc2ccccc2n1C(=O)/C=C/c1ccccc1` , what is its reported MIC?
[out] > 128 µg/mL

[in] Item under review: `O=C(O)/C=C/c1ccccc1` . Reported MIC?
[out] > 128 µg/mL

[in] // MIC lookup, key: `COc1ccc(/C=C/C(=O)N2CCOCC2)cc1OC`
[out] > 128 µg/mL

[in] Bench note: what MIC did `CCN(CC)C(=O)/C=C/c1ccc(OC)c(OC)c1` show?
[out] 128 µg/mL

[in] Look up MIC: `CCCCCCNC(=O)/C=C/c1ccc(Cl)cc1Cl`
[out] > 128 µg/mL

[in] Dear colleague, I am looking for the recorded MIC of the following compound: `CCCNC(=O)/C=C/c1ccc([N+](=O)[O-])cc1`
[out] > 128 µg/mL

[in] Need MIC of `Cc1nc2ccccc2n1C(=O)/C=C/c1ccc(Cl)cc1Cl` , thanks.
[out] > 128 µg/mL

[in] # input compound: O=C(/C=C/c1ccc(Cl)cc1Cl)N1CCN(C(c2ccccc2)c2ccc(Cl)cc2)CC1 (centres undefined) ; wanted: its MIC
[out] > 128 µg/mL

[in] Field request: MIC | item: `Cc1nc2ccccc2n1C(=O)/C=C/c1ccccc1Cl`
[out] 128 µg/mL

[in] Field request: MIC | item: `COc1cc(/C=C/C(=O)N2CCOCC2)cc(OC)c1OC`
[out] > 128 µg/mL

[in] Entry `COc1cc(/C=C/C(=O)N(C)C)cc(OC)c1OC` has what MIC?
[out] 128 µg/mL

[in] Look up MIC: `Cc1nc2ccccc2n1C(=O)/C=C/c1ccc(Cl)cc1`
[out] > 128 µg/mL

[in] Suppose we examine the compound `CCCNC(=O)/C=C/c1ccc(Cl)cc1Cl` ; what MIC value has been reported?
[out] > 128 µg/mL

[in] MIC lookup needed for `Cc1nccn1-c1cc(NC(=O)/C=C/c2ccc([N+](=O)[O-])cc2)cc(C(F)(F)F)c1` , thanks.
[out] 128 µg/mL

[in] Name the recorded MIC for O=C(/C=C/c1ccccc1Cl)N1CCN(C(c2ccccc2)c2ccc(Cl)cc2)CC1 (centres undefined) .
[out] 128 µg/mL

[in] Param item = `CC(C)NC(=O)/C=C/c1ccc(Cl)cc1Cl` ; retrieve measured MIC.
[out] > 128 µg/mL

[in] I'd like to know its MIC. The compound in question is `CC(C)NC(=O)/C=C/c1ccc([N+](=O)[O-])cc1`
[out] > 128 µg/mL

[in] MIC for `CCCCNC(=O)/C=C/c1ccc([N+](=O)[O-])cc1` ?
[out] > 128 µg/mL

[in] MIC lookup needed for COc1ccccc1/C=C/C(=O)N1CCN(C(c2ccccc2)c2ccc(Cl)cc2)CC1 (centres undefined) , thanks.
[out] > 128 µg/mL

[in] Look up MIC: `O=C(O)c1cn(C2CC2)c2cc(N3CCNCC3)c(F)cc2c1=O`
[out] > 128 µg/mL
